// data source = patent US12698507B2

assayed-system: Thermosynechococcus vulcanus NIES-2134 protoporphyrinogen IX oxidase CyPPO18 (SEQ ID NO: 3) variant V305M (MBP fusion) (Thermosynechococcus vestitus, UniProt Q8DLV2, V305M)
Sequence (Q8DLV2 entry or part of it V305M): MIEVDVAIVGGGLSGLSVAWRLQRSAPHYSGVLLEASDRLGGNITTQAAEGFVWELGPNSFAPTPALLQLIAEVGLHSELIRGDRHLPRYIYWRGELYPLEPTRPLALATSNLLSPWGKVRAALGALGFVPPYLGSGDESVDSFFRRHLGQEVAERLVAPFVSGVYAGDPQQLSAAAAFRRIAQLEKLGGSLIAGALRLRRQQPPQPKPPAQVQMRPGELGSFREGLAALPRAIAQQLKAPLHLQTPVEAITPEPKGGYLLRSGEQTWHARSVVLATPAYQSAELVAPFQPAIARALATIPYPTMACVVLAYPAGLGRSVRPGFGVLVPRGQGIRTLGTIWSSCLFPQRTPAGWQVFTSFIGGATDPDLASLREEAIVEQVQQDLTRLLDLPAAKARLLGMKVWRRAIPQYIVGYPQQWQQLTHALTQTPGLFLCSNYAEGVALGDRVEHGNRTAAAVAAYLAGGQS
method-description: PPO enzyme inhibition assay (IC50 for herbicides), CyPPO18 V305M fused to MBP
measurement-conditions: 50 μM protoporphyrinogen IX, pH 7.5, room temperature, 30 min
Overview of recorded pIC50 for various molecules
Field pIC50 (float): negative decimal logarithm of the concentration in molar.

>>> value("Cc1nn(-c2cc(CC(Cl)C(=O)O)c(Cl)cc2F)c(=O)n1C(F)F (centres unmarked)")
5.79

Switching to the query record.
Entry CCOc1cc(Oc2ccc(C(F)(F)F)cc2Cl)ccc1[N+](=O)[O-] : reported pIC50 = ?
6.45
